- SUBJECT OF TEST: human MyD88 (human) (UniProt Q99836)
- PROCEDURE TEXT: P3 phage display panning on plate-immobilised MyD88, after round 4, NGS
Item-by-item account of NGS count
Please give a number only; it is taken to be in count.

The cases that follow already have their NGS count on record.
BINDER	MEASURE	OBSERVED
PSEVRKQTGSLAKAFA	NGS count	2250
TSHLHHALRLNKIETF	NGS count	2080

Please find the next binder below.
Look at this binder and give its reported NGS count. GFLYQAFAREGFKIFM
2580
